assayed system: UniProt Q04750
Sequence (Q04750 whole entry): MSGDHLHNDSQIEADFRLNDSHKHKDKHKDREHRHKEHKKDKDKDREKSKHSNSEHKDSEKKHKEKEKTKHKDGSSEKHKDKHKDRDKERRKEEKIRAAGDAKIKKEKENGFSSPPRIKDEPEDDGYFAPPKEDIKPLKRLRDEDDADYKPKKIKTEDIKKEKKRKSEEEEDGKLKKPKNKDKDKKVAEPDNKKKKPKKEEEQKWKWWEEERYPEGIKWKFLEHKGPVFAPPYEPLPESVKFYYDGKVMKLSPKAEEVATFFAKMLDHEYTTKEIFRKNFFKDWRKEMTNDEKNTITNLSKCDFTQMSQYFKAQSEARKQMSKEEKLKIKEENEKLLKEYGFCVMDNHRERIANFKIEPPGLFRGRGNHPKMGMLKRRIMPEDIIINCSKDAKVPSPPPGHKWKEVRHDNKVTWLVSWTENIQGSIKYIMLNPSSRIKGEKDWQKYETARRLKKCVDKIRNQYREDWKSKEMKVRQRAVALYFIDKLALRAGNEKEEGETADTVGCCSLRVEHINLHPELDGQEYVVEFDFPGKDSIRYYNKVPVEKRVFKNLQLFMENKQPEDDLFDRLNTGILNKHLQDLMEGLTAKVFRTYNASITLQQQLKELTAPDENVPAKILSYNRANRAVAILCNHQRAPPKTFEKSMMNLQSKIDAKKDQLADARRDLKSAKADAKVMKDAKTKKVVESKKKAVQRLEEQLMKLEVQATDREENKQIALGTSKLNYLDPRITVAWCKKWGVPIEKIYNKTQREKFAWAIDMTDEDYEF
test protocol: Inhibition of topoisomerase 1 extracted from mouse EAC cells assessed as inhibition of Escherichia coli pBR322 relaxation
readout type: IC50 (nM)
Report the value in nM with no unit label.

Sure, the documented IC50 for Cc1ccc2c(c1CCCC(C)(C)O)C(=O)C(=O)C(C(C)C)=C2 is 800

###

Tested on: SGC-7901
test protocol: Cytotoxicity against human SGC7901 cells after 48 hr by MTT assay
Type: functional, cell-based
assay conditions: SGC-7901, 48 h
readout type: pIC50
Value format note: pIC50 is -log10 of concentration (mol/L); just state the number.

Sure, the documented pIC50 for Cc1ccc2c(c1CCC(=O)C(C)(C)O)C(=O)C(=O)C(C(C)C)=C2 is 6.70

###

Test system: MKN-28
test protocol: Cytotoxicity against human MKN28 cells after 48 hr by MTT assay
Assay type: functional, cell-based
assay conditions: MKN-28, 48 h
readout type: pIC50
Value format note: pIC50 is -log10 of concentration (mol/L); just state the number.

Sure, the documented pIC50 for Cc1ccc2c(c1CCC(=O)C(C)(C)O)C(=O)C(=O)C(C(C)C)=C2 is 6.52
